B1: Tyrosine-protein kinase BTK, residues 215 to 273; numbered along this chain, Q06187 (parent)
chain: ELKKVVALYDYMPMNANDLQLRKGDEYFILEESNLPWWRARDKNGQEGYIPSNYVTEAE

Variants of: B1
Assay: abundance fitness (aPCA) (normalised: wild type 0, dead -1); higher = more abundant; growth selection in yeast, the domain comes from the species named
Conditions: Homo sapiens
Metric: abundance fitness
In your answer, state the number alone without any accompanying words.

Known results for variants:
Can you look up the measured abundance fitness of Y27A for me?
-0.339

Dear colleague, I am looking for the recorded abundance fitness of the following variant: E32F
-0.173

Which abundance fitness reading was recorded for the variant L30P ?
-0.365

Given the entry G24D , report its measured abundance fitness.
-0.09

Dear colleague, I am looking for the recorded abundance fitness of the following variant: G45R
-0.16

Any idea what its abundance fitness is? The variant is E26D
-0.061

Quick one: abundance fitness for Y49D ?
-0.032

Given the variant L35S , what is its reported abundance fitness?
-0.041

---
Name the reported abundance fitness value associated with the variant E26S
0

abundance fitness lookup needed for Y27P , thanks.
-0.624

Given the variant N34V , what is its reported abundance fitness?
0.065
